# Tested on: hiPSC-CMs (iCell-Cardiomyocytes^2)
# Conditions used: 0.3 µM, 48h
Property measured: FPD (field-potential duration), % change from baseline (%)
Express the result in % but write the number alone.

Molecule | Target or system | Measurement unit | Recorded result
O=C(O)COCCN1CCN(C(c2ccccc2)c2ccc(Cl)cc2)CC1 (stereo not shown) [Cetirizine] | hiPSC-CMs (iCell-Cardiomyocytes^2) | % | 12.1
CC(C)(Sc1cc(C(C)(C)C)c(O)c(C(C)(C)C)c1)Sc1cc(C(C)(C)C)c(O)c(C(C)(C)C)c1 [Probucol] | hiPSC-CMs (iCell-Cardiomyocytes^2) | % | 5.1
Cc1cn(-c2cc(NC(=O)c3ccc(C)c(Nc4nccc(-c5cccnc5)n4)c3)cc(C(F)(F)F)c2)cn1 [Nilotinib] | hiPSC-CMs (iCell-Cardiomyocytes^2) | % | 46.7

From here, focus on the item given below.
Query block: Field request: FPD (field-potential duration), % change from baseline | item: N=C(N)c1ccc(OCCCCCOc2ccc(C(=N)N)cc2)cc1 [Pentamidine]
Result block: 4.9

---

# Test system: hiPSC-CMs (iCell-Cardiomyocytes^2)
# Conditions used: 1 µM, 24h
Property measured: FPDc (field-potential duration corrected by beat-rate), % change from baseline (%)
Express the result in % but write the number alone.

Record smiles | Recorded result
CC(C)(Sc1cc(C(C)(C)C)c(O)c(C(C)(C)C)c1)Sc1cc(C(C)(C)C)c(O)c(C(C)(C)C)c1 | 15.1
N=C(N)c1ccc(OCCCCCOc2ccc(C(=N)N)cc2)cc1 | 5.5
Cc1cn(-c2cc(NC(=O)c3ccc(C)c(Nc4nccc(-c5cccnc5)n4)c3)cc(C(F)(F)F)c2)cn1 | 200.7

From here, focus on the item given below.
Query block: Field request: FPDc (field-potential duration corrected by beat-rate), % change from baseline | item: C#Cc1cccc(Nc2ncnc3cc(OCCOC)c(OCCOC)cc23)c1
Result block: 5.6

---

# Tested on: hiPSC-CMs (iCell-Cardiomyocytes^2)
# Assay procedure: MEA impedance (cytotoxicity readout) in hiPSC-CMs
# Conditions used: 3 µM, 96h
Property measured: Imp (impedance), % change from baseline (%)
Express the result in % but write the number alone.

A selection of reference data follows.
Compound | Target or system | Imp (impedance), % change from baseline / %
COc1cccc2c1C(=O)c1c(O)c3c(c(O)c1C2=O)C[C@@](O)(C(=O)CO)C[C@@H]3O[C@H]1C[C@H](N)[C@H](O)[C@H](C)O1 | hiPSC-CMs (iCell-Cardiomyocytes^2) | -88
COc1cc2c(Nc3ccc(Br)cc3F)ncnc2cc1OCC1CCN(C)CC1 | hiPSC-CMs (iCell-Cardiomyocytes^2) | -53
CC(=O)Oc1ccccc1C(=O)O | hiPSC-CMs (iCell-Cardiomyocytes^2) | -7
C[C@H](CS)C(=O)N1CCC[C@H]1C(=O)O | hiPSC-CMs (iCell-Cardiomyocytes^2) | -1
O=C(O)COCCN1CCN(C(c2ccccc2)c2ccc(Cl)cc2)CC1 (stereo not shown) | hiPSC-CMs (iCell-Cardiomyocytes^2) | -6
COc1nc(N)nc2c1ncn2[C@@H]1O[C@H](COP(=O)(N[C@@H](C)C(=O)OCC(C)(C)C)Oc2cccc3ccccc23)[C@@H](O)[C@@]1(C)O (stereo partly shown) | hiPSC-CMs (iCell-Cardiomyocytes^2) | -38
N=C(N)c1ccc(OCCCCCOc2ccc(C(=N)N)cc2)cc1 | hiPSC-CMs (iCell-Cardiomyocytes^2) | -42
CC(C)(Sc1cc(C(C)(C)C)c(O)c(C(C)(C)C)c1)Sc1cc(C(C)(C)C)c(O)c(C(C)(C)C)c1 | hiPSC-CMs (iCell-Cardiomyocytes^2) | -7
C#Cc1cccc(Nc2ncnc3cc(OCCOC)c(OCCOC)cc23)c1 | hiPSC-CMs (iCell-Cardiomyocytes^2) | 0

Query block: Field request: Imp (impedance), % change from baseline | item: CC1(C)S[C@@H]2[C@H](NC(=O)[C@H](N)c3ccc(O)cc3)C(=O)N2[C@H]1C(=O)O
Result block: -2

---

# Test system: hiPSC-CMs (iCell-Cardiomyocytes^2)
# Conditions used: 0.1 µM, 24h
Property measured: FPDc (field-potential duration corrected by beat-rate), % change from baseline (%)
Express the result in % but write the number alone.

A selection of reference data follows.
Molecule | Measurement unit | Recorded result
N=C(N)c1ccc(OCCCCCOc2ccc(C(=N)N)cc2)cc1 | % | 2.8
CCN(CC)CCNC(=O)c1c(C)[nH]c(/C=C2\C(=O)Nc3ccc(F)cc32)c1C | % | 21.9

Query block: Field request: FPDc (field-potential duration corrected by beat-rate), % change from baseline | item: COc1cccc2c1C(=O)c1c(O)c3c(c(O)c1C2=O)C[C@@](O)(C(=O)CO)C[C@@H]3O[C@H]1C[C@H](N)[C@H](O)[C@H](C)O1
Result block: -8.8

---

A collection of molecules and their measured Beating below threshold, number of observations/total well numbers
# Tested on: hiPSC-CMs (iCell-Cardiomyocytes^2)
# Conditions used: 3 µM, 96h

A selection of reference data follows.
Molecule | Target or system | Recorded result
CC(C)(Sc1cc(C(C)(C)C)c(O)c(C(C)(C)C)c1)Sc1cc(C(C)(C)C)c(O)c(C(C)(C)C)c1 | hiPSC-CMs (iCell-Cardiomyocytes^2) | 0/5
COc1cccc2c1C(=O)c1c(O)c3c(c(O)c1C2=O)C[C@@](O)(C(=O)CO)C[C@@H]3O[C@H]1C[C@H](N)[C@H](O)[C@H](C)O1 | hiPSC-CMs (iCell-Cardiomyocytes^2) | 0/5
N=C(N)c1ccc(OCCCCCOc2ccc(C(=N)N)cc2)cc1 | hiPSC-CMs (iCell-Cardiomyocytes^2) | 1/6
COc1cc2c(Nc3ccc(Br)cc3F)ncnc2cc1OCC1CCN(C)CC1 | hiPSC-CMs (iCell-Cardiomyocytes^2) | 0/5
COc1nc(N)nc2c1ncn2[C@@H]1O[C@H](COP(=O)(N[C@@H](C)C(=O)OCC(C)(C)C)Oc2cccc3ccccc23)[C@@H](O)[C@@]1(C)O (stereo partly drawn) | hiPSC-CMs (iCell-Cardiomyocytes^2) | 0/5

From here, focus on the item given below.
Query block: Query for hiPSC-CMs (iCell-Cardiomyocytes^2): what Beating below threshold, number of observations/total well numbers does the record show for C#Cc1cccc(Nc2ncnc3cc(OCCOC)c(OCCOC)cc23)c1 ?
Result block: 0/5

---

# Test system: hiPSC-CMs (iCell-Cardiomyocytes^2)
# Conditions used: 1 µM, 96h
A collection of compounds and their measured Flat T-wave-like, number of observations/total well numbers

A selection of reference data follows.
Compound | Recorded result
COc1nc(N)nc2c1ncn2[C@@H]1O[C@H](COP(=O)(N[C@@H](C)C(=O)OCC(C)(C)C)Oc2cccc3ccccc23)[C@@H](O)[C@@]1(C)O (stereo partly shown) | 4/5
COc1cccc2c1C(=O)c1c(O)c3c(c(O)c1C2=O)C[C@@](O)(C(=O)CO)C[C@@H]3O[C@H]1C[C@H](N)[C@H](O)[C@H](C)O1 | 0/5
C#Cc1cccc(Nc2ncnc3cc(OCCOC)c(OCCOC)cc23)c1 | 0/5

Query block: Field request: Flat T-wave-like, number of observations/total well numbers | item: N=C(N)c1ccc(OCCCCCOc2ccc(C(=N)N)cc2)cc1
Result block: 0/6

Query block: Next entry: COc1cc2c(Nc3ccc(Br)cc3F)ncnc2cc1OCC1CCN(C)CC1
Result block: 1/5

Query block: Next entry: Cc1cn(-c2cc(NC(=O)c3ccc(C)c(Nc4nccc(-c5cccnc5)n4)c3)cc(C(F)(F)F)c2)cn1
Result block: 1/5

Query block: Next entry: CC(C)(Sc1cc(C(C)(C)C)c(O)c(C(C)(C)C)c1)Sc1cc(C(C)(C)C)c(O)c(C(C)(C)C)c1
Result block: 0/4

---

# Tested on: hiPSC-CMs (iCell-Cardiomyocytes^2)
# Conditions used: 1 µM, 2h
Property measured: Cessation of beating, number of observations/total well numbers

A selection of reference data follows.
Compound | Recorded result
COc1cccc2c1C(=O)c1c(O)c3c(c(O)c1C2=O)C[C@@](O)(C(=O)CO)C[C@@H]3O[C@H]1C[C@H](N)[C@H](O)[C@H](C)O1 | 0/5
COc1cc2c(Nc3ccc(Br)cc3F)ncnc2cc1OCC1CCN(C)CC1 | 0/5
C#Cc1cccc(Nc2ncnc3cc(OCCOC)c(OCCOC)cc23)c1 | 0/5

Query block: Field request: Cessation of beating, number of observations/total well numbers | item: COc1nc(N)nc2c1ncn2[C@@H]1O[C@H](COP(=O)(N[C@@H](C)C(=O)OCC(C)(C)C)Oc2cccc3ccccc23)[C@@H](O)[C@@]1(C)O (stereo partly shown)
Result block: 0/5

Query block: Next entry: CC(C)(Sc1cc(C(C)(C)C)c(O)c(C(C)(C)C)c1)Sc1cc(C(C)(C)C)c(O)c(C(C)(C)C)c1
Result block: 0/4

Query block: Next entry: N=C(N)c1ccc(OCCCCCOc2ccc(C(=N)N)cc2)cc1
Result block: 0/6

Query block: Next entry: Cc1cn(-c2cc(NC(=O)c3ccc(C)c(Nc4nccc(-c5cccnc5)n4)c3)cc(C(F)(F)F)c2)cn1
Result block: 0/5
